B1: Caulobacter ParB omega fusion; a variant is named by its letters at X, in order, B8GW30 (parent)
chain: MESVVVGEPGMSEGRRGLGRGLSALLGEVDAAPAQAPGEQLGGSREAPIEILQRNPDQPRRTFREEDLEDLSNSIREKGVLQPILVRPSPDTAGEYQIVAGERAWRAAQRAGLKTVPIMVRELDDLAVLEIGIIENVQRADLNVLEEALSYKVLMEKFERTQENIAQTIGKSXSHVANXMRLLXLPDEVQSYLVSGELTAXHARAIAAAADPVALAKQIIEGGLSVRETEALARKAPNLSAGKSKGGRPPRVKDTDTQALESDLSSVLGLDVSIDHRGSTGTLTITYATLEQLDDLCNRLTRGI

Variants of: B1
Assay: one-hybrid fitness for binding NBS DNA (the Noc-binding site; scaled: cognate 1, non-cognate 0); higher = stronger binding
Conditions: with NBS DNA site
The full ranking holds about 81,000 sequences; the median of “one-hybrid fitness for binding NBS DNA” is about -0.1, and the highest 2% start at about 0.36. The full list was thinned out, with the highest values kept by preference.
Reported Property: one-hybrid fitness for binding NBS DNA

>  <Change>
YQMR

>  <one-hybrid fitness for binding NBS DNA>
≤ 0.2

$$$$

Prompt: Which one-hybrid fitness for binding NBS DNA value is on record for LTWA ?
Response: ≤ 0.2

Prompt: Which one-hybrid fitness for binding NBS DNA value is on record for RLAN ?
Response: ≤ 0.2

Prompt: Which one-hybrid fitness for binding NBS DNA value is on record for RHIK ?
Response: ≤ 0.2

Prompt: Which one-hybrid fitness for binding NBS DNA value is on record for RRMS ?
Response: 0.628

Prompt: Which one-hybrid fitness for binding NBS DNA value is on record for IEYR ?
Response: ≤ 0.2

Prompt: Which one-hybrid fitness for binding NBS DNA value is on record for VYYR ?
Response: ≤ 0.2

Prompt: Which one-hybrid fitness for binding NBS DNA value is on record for DGTS ?
Response: ≤ 0.2

Prompt: Which one-hybrid fitness for binding NBS DNA value is on record for RKNW ?
Response: ≤ 0.2

Prompt: Which one-hybrid fitness for binding NBS DNA value is on record for FTQR ?
Response: ≤ 0.2

Prompt: Which one-hybrid fitness for binding NBS DNA value is on record for RAFR ?
Response: 0.27

Prompt: Which one-hybrid fitness for binding NBS DNA value is on record for MSTF ?
Response: ≤ 0.2
